meta.source: ChEMBL document CHEMBL2150910

- test.details: Plasma concentration in CD1 mouse at 30 mg/kg, po after 4 hrs
- Format: ADME, organism-based
- Parameters: dose 30 mg/kg, route oral

structure.as.smiles: CC(=O)O[C@@H]([C@H]1C[C@@H](C)[C@H]2[C@H](O1)[C@H](O)[C@@]1(C)[C@@H]3CC[C@H]4C(C)(C)[C@@H](O[C@H]5CNCCO5)CC[C@@]45C[C@@]35CC[C@]21C)C(C)(C)O
endpoint.unit: ng/mL
concentration at 4 h: 1140

====

- test.details: Plasma concentration in CD1 mouse at 100 mg/kg, po after 4 hrs
- Type: ADME, organism-based
- Set-up: dose 100 mg/kg, route oral

structure.as.smiles: CC(=O)O[C@@H]([C@H]1C[C@@H](C)[C@H]2[C@H](O1)[C@H](O)[C@@]1(C)[C@@H]3CC[C@H]4C(C)(C)[C@@H](O[C@H]5CN(C6COC6)CCO5)CC[C@@]45C[C@@]35CC[C@]21C)C(C)(C)O
concentration at 4 h: 420 ng/mL
